# measurement_protocol: yeast display, Sf9 membrane polyspecificity reagent, FACS + sequencing; frameworks hold sequencing errors
metric: polyreactivity (PSR sort gate)

Some sequences with recorded polyreactivity (PSR sort gate):
- sequence_record: "QVQVVESGGGLVQAGGSLRLSCAPSGRIFQLYAMGRYRQAPRKERELVAVISSGDRTYYADSVKGRFTISRDNAKNTVYLQMNSLKPEDTAVYYCAALGWQSGGSRWHGEYDYWGQGTQVTVSS"
  metric: "polyreactivity (PSR sort gate)"
  result: "low polyreactivity"
- sequence_record: "QVKIVESGGGLVQAGGSLRLSCAASGSTYYYYSMGWYRQAPGKERELVAAITGSGTSTYYADSVKGRFTISRDNAKNTVYLQMNSLKPEYTAVYYCAAEYPWYYYIDVSYTDYGYWGQGTQVTVSS"
  metric: "polyreactivity (PSR sort gate)"
  result: "high polyreactivity"
- sequence_record: "QVQLVESGGGLVQAGGSLRLSCASSGSIIVVYGMGWYRQAPGKERELVAAISGGITNYADSVKGRFTISRDNAMNTVYLQMNILIPEDTAVYYCATVDGAYQYTYDYWGQGTQVTVSS"
  metric: "polyreactivity (PSR sort gate)"
  result: "low polyreactivity"
- sequence_record: "PVQLVESGGGLVQAGGSLRLICAASGRIFLPYAMGWYRQAPGKERELVASITRRGGTTYYADSVKGRFTLSRDYAKNTDYLQLNSLKTEDTSVYYCAADSGYRLQSYGYWGQGTQVTVSS"
  metric: "polyreactivity (PSR sort gate)"
  result: "high polyreactivity"
- sequence_record: "QVQLVESGGGLVQAGGSLRLSCAASGRIYRGYAMGWYRQAPRKERELFARITSGGRTYYADSVKGRFTISRDNAMNTVYLQMISLKPEDTAVYYCATVGGGYDERHNYWGQWTQVTVSS"
  metric: "polyreactivity (PSR sort gate)"
  result: "high polyreactivity"
- sequence_record: "QVQLVESGGGLVQAGGSLRLSCAASGSTFGGNAMGWYRQAPGKERELVAAITVGGDSTYYADSVKGRFTISRDNAKNTVYLQMNSLKPEVTAVYYCAAGPWYKFYDWRPWFSYDYWGQGTQVTVSS"
  metric: "polyreactivity (PSR sort gate)"
  result: "low polyreactivity"
- sequence_record: "QVQLVESGGVLVQAGGSLRLSCAASGRTFNAYTMGWYRQAPGKERELVAAITSSGGNTYYADSVKGRFTITRDNGKNTVFLQMNSLKPEDTAVYYCNTVYLYGTHDYWGQGTQLTVSS"
  metric: "polyreactivity (PSR sort gate)"
  result: "low polyreactivity"
- sequence_record: "QVQLVESGGGLVQAGGSLRLSCAASGRTFYRYAMGWYRQAAGTERELVAAISRSGGSTYYADSVKGRFTISRDHAKYTVYLQMNSLKPQDTAVYYCAAGYDGYKQGGGGYWGQGTQVTVSS"
  metric: "polyreactivity (PSR sort gate)"
  result: "high polyreactivity"

Continue with the next sequence.
Recorded polyreactivity (PSR sort gate) (sequence QLQLVESGPGLVQAGGSLRLSCAPSGSTFNRNAMGCYSQAPGKERELVAVISSGGSTYYADSVKGRFTISRDIAKNTVYLQMNSLKPEDTAVYYCAAGDPQKEDYWGQGTQVTVSS ): low polyreactivity
